# test_target: UniProt Q9UM07
# Sequence (Q9UM07 whole entry): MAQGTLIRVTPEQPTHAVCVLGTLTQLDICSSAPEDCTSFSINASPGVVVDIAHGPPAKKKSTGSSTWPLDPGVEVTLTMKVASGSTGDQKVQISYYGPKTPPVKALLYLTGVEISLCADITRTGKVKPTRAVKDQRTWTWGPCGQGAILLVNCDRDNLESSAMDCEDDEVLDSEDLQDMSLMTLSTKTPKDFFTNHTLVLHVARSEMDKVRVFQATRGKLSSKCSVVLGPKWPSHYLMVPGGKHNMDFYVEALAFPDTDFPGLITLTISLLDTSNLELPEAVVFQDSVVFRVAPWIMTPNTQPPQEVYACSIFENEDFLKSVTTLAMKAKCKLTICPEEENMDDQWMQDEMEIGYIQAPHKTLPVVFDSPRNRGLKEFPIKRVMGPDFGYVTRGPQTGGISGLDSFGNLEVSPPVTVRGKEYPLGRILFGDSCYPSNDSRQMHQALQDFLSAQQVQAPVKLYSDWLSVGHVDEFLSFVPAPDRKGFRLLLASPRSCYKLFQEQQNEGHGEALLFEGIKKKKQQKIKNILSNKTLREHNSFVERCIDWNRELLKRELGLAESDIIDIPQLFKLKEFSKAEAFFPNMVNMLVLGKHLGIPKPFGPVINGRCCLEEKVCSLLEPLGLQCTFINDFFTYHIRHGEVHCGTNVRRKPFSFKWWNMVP
# test_description: RFMS Human PAD4 Functional Assay
# Assay type: biochemical
# run_conditions: hPAD4 RFMS IC50, human PAD4, rapid-fire mass spectrum (RFMS) assay; 5 nM hPAD4, 250 μM BAEE
pIC50: −log10 of the molar value.
Please note: 1 (yes) applies when pIC50 is 7 or greater, and 0 (no) applies otherwise.

| molecule | test_target | class_label |
| --- | --- | --- |
| COc1cc(C(=O)N2C[C@H]3CC[C@@H]2[C@@H]3N)cc2nc(-c3cc4cccc(C5CCCC5)c4n3CC3CC3)n(C)c12 | UniProt Q9UM07 | 0 (no) |
| COc1cc(C(=O)N2C[C@H]3CC[C@@H]2[C@@H]3N)cc2nc(-c3cc4cccc(C5CCN(C(=O)Nc6ccncc6)CC5)c4n3CC3CC3)n(C)c12 | UniProt Q9UM07 | 1 (yes) |
| COc1cc(C(=O)N2C[C@H]3CC[C@@H]2[C@@H]3N)cc2nc(-c3cc4cccc(CC5CCCCO5)c4n3CC3CC3)n(C)c12 (some centres unmarked) | UniProt Q9UM07 | 0 (no) |
